Readings of pIC50 for the listed molecules
# EXPERIMENTAL SYSTEM: Polyketide synthase Pks13 (Mycobacterium tuberculosis (strain ATCC 25618 / H37Rv), UniProt I6X8D2)
# Sequence (I6X8D2 whole entry): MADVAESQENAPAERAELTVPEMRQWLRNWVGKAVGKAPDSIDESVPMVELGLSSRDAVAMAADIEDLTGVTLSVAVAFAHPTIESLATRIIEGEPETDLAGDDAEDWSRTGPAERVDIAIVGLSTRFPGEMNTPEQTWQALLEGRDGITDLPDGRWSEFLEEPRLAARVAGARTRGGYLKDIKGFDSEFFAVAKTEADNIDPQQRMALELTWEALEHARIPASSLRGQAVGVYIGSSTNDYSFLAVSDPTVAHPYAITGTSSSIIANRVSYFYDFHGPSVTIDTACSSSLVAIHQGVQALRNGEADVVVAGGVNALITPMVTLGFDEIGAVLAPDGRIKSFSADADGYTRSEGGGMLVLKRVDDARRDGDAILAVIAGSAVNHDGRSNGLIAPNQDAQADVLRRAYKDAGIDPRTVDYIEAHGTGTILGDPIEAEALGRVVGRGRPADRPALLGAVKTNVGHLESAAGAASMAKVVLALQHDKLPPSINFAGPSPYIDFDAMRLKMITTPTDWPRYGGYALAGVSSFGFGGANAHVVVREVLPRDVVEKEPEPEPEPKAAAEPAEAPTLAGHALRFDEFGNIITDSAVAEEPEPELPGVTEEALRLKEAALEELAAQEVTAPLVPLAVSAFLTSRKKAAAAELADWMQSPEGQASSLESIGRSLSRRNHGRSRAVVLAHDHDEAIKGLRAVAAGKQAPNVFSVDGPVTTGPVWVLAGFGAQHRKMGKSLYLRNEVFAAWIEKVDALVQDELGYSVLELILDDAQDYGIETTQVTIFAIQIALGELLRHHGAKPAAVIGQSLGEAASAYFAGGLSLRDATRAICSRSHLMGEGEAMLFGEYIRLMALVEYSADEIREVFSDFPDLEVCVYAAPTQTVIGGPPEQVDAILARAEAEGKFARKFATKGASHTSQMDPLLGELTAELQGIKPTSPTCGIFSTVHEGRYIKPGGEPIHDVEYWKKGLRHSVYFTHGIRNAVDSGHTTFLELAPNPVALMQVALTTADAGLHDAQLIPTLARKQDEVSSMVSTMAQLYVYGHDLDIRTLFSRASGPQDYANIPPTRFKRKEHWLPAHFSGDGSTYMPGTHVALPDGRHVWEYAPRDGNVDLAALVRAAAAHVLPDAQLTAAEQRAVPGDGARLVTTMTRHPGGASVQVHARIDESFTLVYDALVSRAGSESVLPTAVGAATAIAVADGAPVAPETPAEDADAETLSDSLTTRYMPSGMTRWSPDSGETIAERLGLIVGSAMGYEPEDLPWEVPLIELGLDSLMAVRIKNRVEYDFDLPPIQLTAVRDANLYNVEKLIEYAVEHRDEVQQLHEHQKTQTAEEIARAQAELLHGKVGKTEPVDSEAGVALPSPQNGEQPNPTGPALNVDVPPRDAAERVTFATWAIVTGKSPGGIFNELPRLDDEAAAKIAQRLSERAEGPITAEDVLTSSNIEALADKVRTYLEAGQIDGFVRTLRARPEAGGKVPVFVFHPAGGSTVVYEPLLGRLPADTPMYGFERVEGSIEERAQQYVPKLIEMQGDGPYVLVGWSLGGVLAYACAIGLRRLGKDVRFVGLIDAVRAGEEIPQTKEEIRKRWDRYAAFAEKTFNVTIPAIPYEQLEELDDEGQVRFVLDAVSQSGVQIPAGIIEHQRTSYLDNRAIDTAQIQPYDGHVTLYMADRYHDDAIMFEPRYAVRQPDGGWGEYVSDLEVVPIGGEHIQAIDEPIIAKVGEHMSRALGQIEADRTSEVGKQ
# ASSAY SUMMARY: Inhibition of Mycobacterium tuberculosis Pks13-TE expressed in Escherichia coli BL21(DE3) pLysS
# pIC50: negative log10 of molar concentration; output just the value

> print(dat)
                                 mol.smiles  metric.name  value.measured
1  O=c1oc2cc(O)ccc2c2oc3ccc4c(c3c12)CN(C1CCCC1)CO4        pIC50            5.89

Okay, next one:
For O=c1oc2cc(O)ccc2c2oc3ccc(O)c(CN4CCC(F)CC4)c3c12 the molecule record lists pIC50 as 5.81
